experiment: self-splicing fitness, log relative to wild type (ln ratio); higher = more splicing; Tetrahymena group I intron in knt gene, E. coli kanamycin selection, DiMSum; sequences stand for … in CUCUCU…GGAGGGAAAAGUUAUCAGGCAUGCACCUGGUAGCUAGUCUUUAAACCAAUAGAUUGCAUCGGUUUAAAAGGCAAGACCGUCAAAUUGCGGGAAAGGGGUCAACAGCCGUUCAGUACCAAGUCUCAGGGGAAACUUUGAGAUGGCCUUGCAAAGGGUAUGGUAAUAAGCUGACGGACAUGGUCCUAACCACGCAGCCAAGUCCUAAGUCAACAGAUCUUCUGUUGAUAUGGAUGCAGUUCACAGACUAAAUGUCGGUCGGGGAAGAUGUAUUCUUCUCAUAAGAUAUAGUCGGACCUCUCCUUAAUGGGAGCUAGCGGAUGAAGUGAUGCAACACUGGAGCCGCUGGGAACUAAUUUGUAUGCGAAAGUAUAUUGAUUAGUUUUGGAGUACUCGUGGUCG; settings: 37 °C;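 note: selection with 25 µg/mL kanamycin versus none on LB agar overnight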
quantity kind: self-splicing fitness (ln)

| polymer sequence | numeric readout |
| --- | --- |
| UCAUAGCAAUAUUACGGUGU | -1.27 |
| ACUUAGCAAUAUUACGUCUA | -1.83 |
| AGCAAGCAAUAUUACGGUAG | -2.75 |
| AGCCAGCAAUAUUACGUGGA | -2.65 |
| GUCAAGCAAUAUUACGACGA | -1.88 |
| GGGCAGCAAUAUUACGUGUU | -0.906 |
| UAAAAGCAAUAUUACGGUUG | -0.701 |
| AUAAAGCAAUAUUACGGUUA | 0.534 |
| GUGAAGCAAUAUUACGCGCC | -2.69 |
| AAAUAGCAAUAUUACGGGCG | -0.403 |
| AUUGAGCAAUAUUACGGUGU | -2.31 |
| GUAUAGCAAUAUUACGGCCA | 0.0249 |
| CGUAAGCAAUAUUACGCAUG | -0.863 |
| CACGAGCAAUAUUACGCUCA | -2.42 |
| UCCGAGCAAUAUUACGAGAU | -2.02 |
| AGCUAGCAAUAUUACGCCCA | -0.441 |

###

experiment: self-splicing fitness, log relative to wild type (ln ratio); higher = more splicing; Tetrahymena group I intron in knt gene, E. coli kanamycin selection, DiMSum; sequences stand for … in CUCUCU…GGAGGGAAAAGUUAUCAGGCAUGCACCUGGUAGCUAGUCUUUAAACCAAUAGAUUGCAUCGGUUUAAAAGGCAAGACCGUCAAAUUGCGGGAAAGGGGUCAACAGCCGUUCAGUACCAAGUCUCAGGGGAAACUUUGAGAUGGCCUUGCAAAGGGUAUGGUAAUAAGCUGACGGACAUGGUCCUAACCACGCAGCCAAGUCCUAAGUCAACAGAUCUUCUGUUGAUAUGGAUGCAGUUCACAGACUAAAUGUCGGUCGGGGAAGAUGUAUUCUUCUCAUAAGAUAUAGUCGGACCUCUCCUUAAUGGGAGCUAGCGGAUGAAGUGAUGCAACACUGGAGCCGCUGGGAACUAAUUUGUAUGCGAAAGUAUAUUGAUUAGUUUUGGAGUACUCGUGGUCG; conditions: 30 °C
Note to self: values exactly at -2 are T. So self-splicing fitness (ln) at or above -2 is T, below is F.

| polymer sequence | assigned label |
| --- | --- |
| GUGCAGCAAUAUUACGCUAA | T |
| CGAAAGCAAUAUUACGGAUU | F |
| GAUCAGCAAUAUUACGCAUU | F |
| CUGGAGCAAUAUUACGUACG | T |
| UUCAAGCAAUAUUACGCUAG | F |
| UACAAGCAAUAUUACGAACU | T |
| UAGAAGCAAUAUUACGUUGA | F |
| UGAAAGCAAUAUUACGACAC | F |
| GUCAAGCAAUAUUACGUCUA | T |
| AGACAGCAAUAUUACGUAAG | T |
| AGUAAGCAAUAUUACGUUGU | F |
| UCUCAGCAAUAUUACGUGUG | F |
| UUUCAGCAAUAUUACGUCAA | T |
| GGCGAGCAAUAUUACGGUAC | F |
| GUUUAGCAAUAUUACGUGAA | T |
| CAGUAGCAAUAUUACGGGCA | F |

###

assay: self-splicing fitness, log relative to wild type (ln ratio); higher = more splicing; Tetrahymena group I intron in knt gene, E. coli kanamycin selection, DiMSum; sequences stand for … in CUCUCU…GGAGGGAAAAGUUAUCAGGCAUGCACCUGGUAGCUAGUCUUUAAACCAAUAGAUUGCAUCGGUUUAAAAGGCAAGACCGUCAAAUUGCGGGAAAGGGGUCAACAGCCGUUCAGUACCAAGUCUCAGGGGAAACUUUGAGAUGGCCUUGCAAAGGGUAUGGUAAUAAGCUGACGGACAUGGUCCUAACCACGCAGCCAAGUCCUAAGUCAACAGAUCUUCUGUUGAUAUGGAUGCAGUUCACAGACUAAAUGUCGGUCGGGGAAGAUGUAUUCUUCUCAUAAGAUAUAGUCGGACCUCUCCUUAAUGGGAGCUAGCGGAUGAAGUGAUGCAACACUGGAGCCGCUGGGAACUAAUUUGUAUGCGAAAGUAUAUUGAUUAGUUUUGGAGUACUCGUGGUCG; settings: 30 °C
Reported self-splicing fitness (ln) maps to class as: low (below -3), middle (-3 to below -2), high (-2 or more)

| polymer sequence | assigned label |
| --- | --- |
| CCCUAGCAAUAUUACGACAG | middle |
| AAUAAGCAAUAUUACGCUAA | middle |
| CCUUAGCAAUAUUACGCGCU | low |
| GUUGAGCAAUAUUACGCGGG | low |
| AGUUAGCAAUAUUACGCCGC | middle |
| UGGGAGCAAUAUUACGAUUC | low |
| AGCGAGCAAUAUUACGUCGA | middle |
| CCUAAGCAAUAUUACGUACU | low |
| AUGCAGCAAUAUUACGGUCA | high |
| CCCCAGCAAUAUUACGAAUG | low |
| ACUCAGCAAUAUUACGAUUG | middle |
| CUGAAGCAAUAUUACGACUU | low |
| AACCAGCAAUAUUACGUACU | high |
| AAGAAGCAAUAUUACGAGUC | middle |
| AUAAAGCAAUAUUACGCGUU | high |
| CUGUAGCAAUAUUACGUGUA | low |
| GUCCAGCAAUAUUACGGGCU | middle |
| AGACAGCAAUAUUACGCGUU | low |
| UAUAAGCAAUAUUACGCAUG | high |
| CUUGAGCAAUAUUACGUUCU | middle |
| UACAAGCAAUAUUACGUCAG | middle |
| ACAUAGCAAUAUUACGCGAC | low |
| AGUCAGCAAUAUUACGUCUA | high |
| UCAAAGCAAUAUUACGGGGA | high |
| CAUCAGCAAUAUUACGGACA | high |
| AUUUAGCAAUAUUACGUAAG | middle |
| AAUCAGCAAUAUUACGACAA | high |
| CGUCAGCAAUAUUACGGACC | high |
| GAAAAGCAAUAUUACGAAUA | high |
| CGUCAGCAAUAUUACGCUCG | middle |
| GGGCAGCAAUAUUACGCAAU | high |
| UCCAAGCAAUAUUACGCCCG | middle |
| AUUCAGCAAUAUUACGUUUU | middle |
| AUUAAGCAAUAUUACGUCUC | middle |
| GCGGAGCAAUAUUACGCCUC | low |
| UUGUAGCAAUAUUACGGUGA | high |
| GUGAAGCAAUAUUACGUGGC | middle |
| UUAGAGCAAUAUUACGACCU | low |
| AAUAAGCAAUAUUACGCUUA | low |
| UUUCAGCAAUAUUACGUAAG | high |
| GGGUAGCAAUAUUACGCAUC | middle |
| GUGGAGCAAUAUUACGUACA | middle |
| AAGAAGCAAUAUUACGGCUU | middle |
| UUUUAGCAAUAUUACGCAUA | high |
| AGUUAGCAAUAUUACGCCGU | high |
| CGCGAGCAAUAUUACGCCAG | middle |
| AACUAGCAAUAUUACGUCCA | high |
| GUUAAGCAAUAUUACGACAG | middle |
| GAAUAGCAAUAUUACGGAGG | low |
| UACAAGCAAUAUUACGAUGG | high |
| GGCAAGCAAUAUUACGCCCU | middle |
| AGCCAGCAAUAUUACGCCAU | high |
| CUGAAGCAAUAUUACGACCG | high |
| GCGCAGCAAUAUUACGGUUG | middle |
| AUGCAGCAAUAUUACGUAGG | high |
| ACCCAGCAAUAUUACGCAGC | high |
| GACAAGCAAUAUUACGGCUG | high |
| GAAGAGCAAUAUUACGACGG | middle |
| UUUCAGCAAUAUUACGCCAA | high |

Recorded values, source the supplement of paper PMC7877785.
